- Target or test system: T1, human LPAM-1-Fc (alpha4-Fc/beta7-Fc heterodimer) (human)
- T1 construct: Soluble heterodimer from CHO cells, Protein A purified
- T1 sequence (chain, as listed by the source limits assumed, chain 1 of 2): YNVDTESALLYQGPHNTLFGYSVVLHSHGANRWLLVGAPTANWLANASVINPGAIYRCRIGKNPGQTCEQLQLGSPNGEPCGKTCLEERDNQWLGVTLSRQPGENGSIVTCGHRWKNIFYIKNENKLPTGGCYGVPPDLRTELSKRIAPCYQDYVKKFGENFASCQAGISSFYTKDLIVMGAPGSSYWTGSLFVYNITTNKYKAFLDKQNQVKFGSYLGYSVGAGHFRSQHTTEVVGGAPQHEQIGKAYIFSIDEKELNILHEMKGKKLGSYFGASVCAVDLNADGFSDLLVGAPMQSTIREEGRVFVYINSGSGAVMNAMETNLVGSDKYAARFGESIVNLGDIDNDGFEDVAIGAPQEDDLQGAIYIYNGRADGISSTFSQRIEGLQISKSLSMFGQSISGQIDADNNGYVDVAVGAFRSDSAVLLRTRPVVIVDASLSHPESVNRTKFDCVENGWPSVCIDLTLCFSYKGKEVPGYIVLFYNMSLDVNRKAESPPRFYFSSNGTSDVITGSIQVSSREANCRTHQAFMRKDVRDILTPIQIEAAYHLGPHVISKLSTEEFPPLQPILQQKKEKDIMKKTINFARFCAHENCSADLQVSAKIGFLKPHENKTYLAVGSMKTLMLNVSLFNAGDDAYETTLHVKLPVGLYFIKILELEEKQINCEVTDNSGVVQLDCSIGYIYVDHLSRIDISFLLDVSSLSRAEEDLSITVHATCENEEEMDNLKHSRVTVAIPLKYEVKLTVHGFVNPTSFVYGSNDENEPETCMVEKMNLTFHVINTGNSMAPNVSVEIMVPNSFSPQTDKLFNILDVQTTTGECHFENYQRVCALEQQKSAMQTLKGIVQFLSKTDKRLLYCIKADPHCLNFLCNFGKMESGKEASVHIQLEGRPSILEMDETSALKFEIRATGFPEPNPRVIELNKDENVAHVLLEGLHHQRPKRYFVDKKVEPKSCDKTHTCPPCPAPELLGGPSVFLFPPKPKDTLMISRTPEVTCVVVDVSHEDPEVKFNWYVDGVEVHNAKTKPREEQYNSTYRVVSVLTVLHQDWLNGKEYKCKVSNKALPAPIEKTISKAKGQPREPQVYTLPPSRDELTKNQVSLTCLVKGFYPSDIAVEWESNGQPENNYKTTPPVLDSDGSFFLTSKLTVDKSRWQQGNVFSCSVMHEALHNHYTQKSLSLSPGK
- T1 sequence (chain, as listed by the source limits assumed, chain 2 of 2): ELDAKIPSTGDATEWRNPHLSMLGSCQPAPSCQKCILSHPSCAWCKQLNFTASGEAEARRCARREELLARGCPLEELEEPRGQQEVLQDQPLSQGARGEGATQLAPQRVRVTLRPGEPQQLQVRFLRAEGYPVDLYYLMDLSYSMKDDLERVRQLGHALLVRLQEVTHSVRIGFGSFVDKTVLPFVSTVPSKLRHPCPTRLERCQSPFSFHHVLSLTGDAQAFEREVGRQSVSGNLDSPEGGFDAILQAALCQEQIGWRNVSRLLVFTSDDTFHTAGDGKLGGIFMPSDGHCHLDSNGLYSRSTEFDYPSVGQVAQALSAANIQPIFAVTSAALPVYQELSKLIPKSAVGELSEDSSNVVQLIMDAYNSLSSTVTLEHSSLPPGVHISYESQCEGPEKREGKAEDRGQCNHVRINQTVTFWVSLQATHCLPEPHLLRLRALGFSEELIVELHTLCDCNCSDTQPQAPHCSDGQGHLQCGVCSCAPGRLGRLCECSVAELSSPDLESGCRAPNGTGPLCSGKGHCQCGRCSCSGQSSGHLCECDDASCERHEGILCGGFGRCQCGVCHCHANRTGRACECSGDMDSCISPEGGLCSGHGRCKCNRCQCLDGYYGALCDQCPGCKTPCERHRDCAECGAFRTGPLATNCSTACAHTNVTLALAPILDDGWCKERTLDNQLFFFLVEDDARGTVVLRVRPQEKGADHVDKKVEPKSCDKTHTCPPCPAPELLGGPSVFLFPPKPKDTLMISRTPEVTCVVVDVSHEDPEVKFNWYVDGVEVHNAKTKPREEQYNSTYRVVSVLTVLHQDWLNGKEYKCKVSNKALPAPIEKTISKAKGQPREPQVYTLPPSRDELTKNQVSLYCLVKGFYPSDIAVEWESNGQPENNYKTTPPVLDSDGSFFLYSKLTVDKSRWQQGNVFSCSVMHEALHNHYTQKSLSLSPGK
- Assay info: SPR (BIACORE), LPAM-1-Fc captured by anti-human IgG, 1 mM MnCl2, 1:1 Langmuir
- Experimental: The kinetic 2D-VCAM-1 assay measures binding kinetics of a dimeric ligand (e.g., VLA-Fc fusion protein or LPAM-1-Fc fusion protein) coated to sensor chips and monomeric analyte (e.g., 2D-VCAM-1 variant polypeptides) in the mobile phase. […] Typically, 8 dilutions of 2D-VCAM-1 variant polypeptides ranging from 150 nM to 0.069 nM were analyzed against a blank reference (HBS-P-Mn buffer alone).
Criterion: Kd strictly under 20 nM. Met: Fulfilled. Not met: Not fulfilled.

Answer whether the binder 2D-VCAM-1 variant Clone 47 (ligand, also called Clone 047; not shown: His tag) FKIETTPESRYLAQIGDSVSLTCSTTGCESPFFSWRPLLDSPLNGKVTNEGTTSTLTMNPVSFGNEHSYLCTATCESRKLEKGIQVEIYSFPKDPEIHLSGPLEAGKPITVKCSVADVYPFDRLEIDLLKGDHLMKSQEFLEDADRKSLETKSLEVTFTPVIEDIGKVLVCRAKLHIDEMDSVPTVRQAVKELQVYISP has Kd strictly less than 20 nM
Fulfilled

Answer whether the binder 2D-VCAM-1 variant Clone 150 (ligand, not shown: His tag of the E. coli construct) FKIETTPESRYLAQIGDSVSLTCSTTGCESPLFFWRPQLDAPLNGKVTNEGTTSTLTMNPVSFGNEHSYLCTARCESRSLEKGIQVEIYSFPKDPEIHLSGPLEAGKPITVKCSVADVYPFDRLEIDLLKGDHLMKSQEFLEDADRKSLETKSLEVTFTPVIEDIGKVLVCRAKLHIDEMDSVPTVRQAVKELQVYISP has Kd strictly less than 20 nM
Not fulfilled

Answer whether the binder 2D-VCAM-1 variant Clone 59 (ligand, also called Clone 059; not shown: His tag) FKIETTPESRYLAQIGDSVSLTCSTTGCESPFFSWRPLLDSPLNGKVTNEGTTSTLTMNPVSFGNEHSYLCTATCESRKLEKGIQVEIYSFPKDPEIHLSGPLEAGKPITVKCSVADVYPFDRLEIDLLKGDHLMKSQEFFEDAAWKSLETKSLEVTFTPVIEDIGKVLVCRAKLHIDEMDSVPTVRQAVKELQVYISP has Kd strictly less than 20 nM
Fulfilled

Answer whether the binder 2D-VCAM-1 variant Clone 146 (ligand, not shown: small tags and cut ends) FKIETTPESRYLAQIGDSVSLTCSTTGCESPLFFWRPLLDSPLNGKVTNEGTTSTLTMNPVSFGNEHSYLCTARCESRSLEKGIQVEIYSFPKDPEIHLSGPLEAGKPITVKCSVADVYPFDRLEIDLLKGDHLMKSQEFLEDADRKSLETKSLEVTFTPVIEDIGKVLVCRAKLHIDEMDSVPTVRQAVKELQVYISP has Kd strictly less than 20 nM
Fulfilled
